B1: FERM and PDZ domain-containing protein 4, residues 75 to 154; numbered along this chain, Q14CM0 (parent)
chain: APRKVEMRRDPVLGFGFVAGSEKPVVVRSVTPGGPSEGKLIPGDQIVMINDEPVSAAPRERVIDLVRSCKESILLTVIQP

# Variants of: B1
# assaySummary: abundance fitness (aPCA) (normalised: wild type 0, dead -1); higher = more abundant; growth selection in yeast, the domain comes from the species named
# conditionContext: Homo sapiens
Class field: derived from abundance fitness; ranges LOW: < -0.2; MID: ≥ -0.2 and < -0.04; HIGH: ≥ -0.04

• V54C = HIGH

Hello team, could you let me know which band the following variant falls into: V12L HIGH

Continue with E60I LOW

// repeat for D10T and report LOW

Now the variant S21V LOW

Field entry: G38K MID
